Data provenance is paper PMC12083017.

- assayProcedure: Pharmacokinetics of acteoside and its metabolites in rat plasma after oral acteoside (UPLC-QqQ-MS)
- Type: in vivo, male Sprague–Dawley rats
- settings: male, Sprague-Dawley, rat, plasma, po, 100 mg/kg, acteoside in rat plasma, oral acteoside 100 mg/kg, WCP group, n = 6

[
  {
    "compound": "C[C@@H]1O[C@@H](O[C@@H]2[C@@H](O)[C@H](OCCc3ccc(O)c(O)c3)O[C@H](CO)[C@H]2OC(=O)/C=C/c2ccc(O)c(O)c2)[C@H](O)[C@H](O)[C@H]1O [Acteoside, acteoside]",
    "unitAnnotation": "ng·h/mL",
    "AUC(0-inf)": 6690
  }
]

* * *

- assayProcedure: Pharmacokinetics of acteoside and its metabolites in rat plasma after oral acteoside (UPLC-QqQ-MS)
- Assay type: in vivo, male Sprague–Dawley rats
- settings: male, Sprague-Dawley, rat, plasma, po, 100 mg/kg, metabolite in rat plasma following oral acteoside 100 mg/kg, UCP group, n = 6; read-out: Cmax
Measured Cmax by item
measuredAttribute: Cmax (ng/mL)

[
  {
    "compound": "O=C(O)/C=C/c1ccc(O)c(O)c1",
    "measuredAttribute": "Cmax",
    "reported": 44.1
  },
  {
    "compound": "OCCc1ccc(O)c(O)c1 [Hydroxytyrosol, hydroxytyrosol]",
    "measuredAttribute": "Cmax",
    "reported": 44.4
  }
]

* * *

- assayProcedure: Pharmacokinetics of acteoside and its metabolites in rat plasma after oral acteoside (UPLC-QqQ-MS)
- Format: in vivo, male Sprague–Dawley rats
- settings: male, Sprague-Dawley, rat, plasma, po, 100 mg/kg, acteoside in rat plasma, oral acteoside 100 mg/kg, Control group, n = 6; read-out: Cmax

[
  {
    "molecule": "C[C@@H]1O[C@@H](O[C@@H]2[C@@H](O)[C@H](OCCc3ccc(O)c(O)c3)O[C@H](CO)[C@H]2OC(=O)/C=C/c2ccc(O)c(O)c2)[C@H](O)[C@H](O)[C@H]1O [Acteoside, acteoside]",
    "Cmax (ng/mL)": 863
  }
]

* * *

- assayProcedure: Pharmacokinetics of acteoside and its metabolites in rat plasma after oral acteoside (UPLC-QqQ-MS)
- Type: in vivo, male Sprague–Dawley rats
- settings: male, Sprague-Dawley, rat, plasma, po, 100 mg/kg, rat plasma, oral acteoside 100 mg/kg, UCP group; read-out: mean Cmax of acteoside
measuredAttribute: Cmax (ng/mL)

[
  {
    "compound": "C[C@@H]1O[C@@H](O[C@@H]2[C@@H](O)[C@H](OCCc3ccc(O)c(O)c3)O[C@H](CO)[C@H]2OC(=O)/C=C/c2ccc(O)c(O)c2)[C@H](O)[C@H](O)[C@H]1O [Acteoside, acteoside]",
    "measuredAttribute": "Cmax",
    "reported": 1030
  }
]

* * *

- assayProcedure: Pharmacokinetics of acteoside and its metabolites in rat plasma after oral acteoside (UPLC-QqQ-MS)
- Format: in vivo, male Sprague–Dawley rats
- settings: male, Sprague-Dawley, rat, plasma, po, 100 mg/kg, rat plasma, oral acteoside 100 mg/kg, Control group; read-out: mean Cmax of acteoside
measuredAttribute: Cmax

[
  {
    "compound": "C[C@@H]1O[C@@H](O[C@@H]2[C@@H](O)[C@H](OCCc3ccc(O)c(O)c3)O[C@H](CO)[C@H]2OC(=O)/C=C/c2ccc(O)c(O)c2)[C@H](O)[C@H](O)[C@H]1O [Acteoside, acteoside]",
    "measuredAttribute": "Cmax",
    "reported": "863 ng/mL"
  }
]

* * *

- assayProcedure: Pharmacokinetics of acteoside and its metabolites in rat plasma after oral acteoside (UPLC-QqQ-MS)
- Assay type: in vivo, male Sprague–Dawley rats
- settings: male, Sprague-Dawley, rat, plasma, po, 100 mg/kg, metabolite in rat plasma following oral acteoside 100 mg/kg, WCP group, n = 6
Measured AUC(0-t) by item
measuredAttribute: AUC(0-t) (ng·h/mL)

[
  {
    "compound": "OCCc1ccc(O)c(O)c1 [Hydroxytyrosol, hydroxytyrosol]",
    "reported": 90.6
  },
  {
    "compound": "O=C(O)/C=C/c1ccc(O)c(O)c1",
    "reported": 125
  }
]

* * *

Measured AUC(0-t) by item
- assayProcedure: Pharmacokinetics of acteoside and its metabolites in rat plasma after oral acteoside (UPLC-QqQ-MS)
- Type: in vivo, male Sprague–Dawley rats
- settings: male, Sprague-Dawley, rat, plasma, po, 100 mg/kg, metabolite in rat plasma following oral acteoside 100 mg/kg, Control group, n = 6
- Excerpt: After a week of acclimatization, rats were split into three groups at random: the wine-processed Cistanche polysaccharide group (WCP group), the unprocessed Cistanche polysaccharide group (UCP group), and the blank control group (Control group). Six rats each group were raised in the same cage for breeding. Prior to the experiment, provide water and regular laboratory meals to the rats at will and fast for one night before the experiment. […]
measuredAttribute: AUC(0-t) (ng·h/mL)

[
  {
    "compound": "O=C(O)/C=C/c1ccc(O)c(O)c1",
    "reported": 76.1
  },
  {
    "compound": "OCCc1ccc(O)c(O)c1 [Hydroxytyrosol, hydroxytyrosol]",
    "reported": 40.6
  }
]

* * *

- assayProcedure: Pharmacokinetics of acteoside and its metabolites in rat plasma after oral acteoside (UPLC-QqQ-MS)
- Assay type: in vivo, male Sprague–Dawley rats
- settings: male, Sprague-Dawley, rat, plasma, po, 100 mg/kg, acteoside in rat plasma, oral acteoside 100 mg/kg, Control group, n = 6
measuredAttribute: half-life (h)

[
  {
    "compound": "C[C@@H]1O[C@@H](O[C@@H]2[C@@H](O)[C@H](OCCc3ccc(O)c(O)c3)O[C@H](CO)[C@H]2OC(=O)/C=C/c2ccc(O)c(O)c2)[C@H](O)[C@H](O)[C@H]1O [Acteoside, acteoside]",
    "measuredAttribute": "half-life",
    "reported": 2.06
  }
]

* * *

Measured half-life by item
- assayProcedure: Pharmacokinetics of acteoside and its metabolites in rat plasma after oral acteoside (UPLC-QqQ-MS)
- Type: in vivo, male Sprague–Dawley rats
- settings: male, Sprague-Dawley, rat, plasma, po, 100 mg/kg, metabolite in rat plasma following oral acteoside 100 mg/kg, WCP group, n = 6
measuredAttribute: half-life (min)

[
  {
    "compound": "O=C(O)/C=C/c1ccc(O)c(O)c1 [Caffeic acid, caffeic acid]",
    "measuredAttribute": "half-life",
    "unitAnnotation": "min",
    "reported": 77.3
  },
  {
    "compound": "OCCc1ccc(O)c(O)c1 [Hydroxytyrosol, hydroxytyrosol]",
    "measuredAttribute": "half-life",
    "unitAnnotation": "min",
    "reported": 32.2
  }
]

* * *

- assayProcedure: Pharmacokinetics of acteoside and its metabolites in rat plasma after oral acteoside (UPLC-QqQ-MS)
- Type: in vivo, male Sprague–Dawley rats
- settings: male, Sprague-Dawley, rat, plasma, po, 100 mg/kg, acteoside in rat plasma, oral acteoside 100 mg/kg, Control group, n = 6

[
  {
    "compound": "C[C@@H]1O[C@@H](O[C@@H]2[C@@H](O)[C@H](OCCc3ccc(O)c(O)c3)O[C@H](CO)[C@H]2OC(=O)/C=C/c2ccc(O)c(O)c2)[C@H](O)[C@H](O)[C@H]1O [Acteoside, acteoside]",
    "AUC(0-t)": "4200 ng·h/mL"
  }
]

* * *

- assayProcedure: Pharmacokinetics of acteoside and its metabolites in rat plasma after oral acteoside (UPLC-QqQ-MS)
- Format: in vivo, male Sprague–Dawley rats
- settings: male, Sprague-Dawley, rat, plasma, po, 100 mg/kg, acteoside in rat plasma, oral acteoside 100 mg/kg, UCP group, n = 6

[
  {
    "molecule": "C[C@@H]1O[C@@H](O[C@@H]2[C@@H](O)[C@H](OCCc3ccc(O)c(O)c3)O[C@H](CO)[C@H]2OC(=O)/C=C/c2ccc(O)c(O)c2)[C@H](O)[C@H](O)[C@H]1O [Acteoside, acteoside]",
    "AUC(0-inf) (ng·h/mL)": 5050
  }
]

* * *

- assayProcedure: Pharmacokinetics of acteoside and its metabolites in rat plasma after oral acteoside (UPLC-QqQ-MS)
- Assay type: in vivo, male Sprague–Dawley rats
- settings: male, Sprague-Dawley, rat, plasma, po, 100 mg/kg, metabolite in rat plasma following oral acteoside 100 mg/kg, UCP group, n = 6

[
  {
    "molecule": "OCCc1ccc(O)c(O)c1 [Hydroxytyrosol, hydroxytyrosol]",
    "unitAnnotation": "min",
    "half-life": 54.5
  }
]

* * *

- assayProcedure: Pharmacokinetics of acteoside and its metabolites in rat plasma after oral acteoside (UPLC-QqQ-MS)
- Format: in vivo, male Sprague–Dawley rats
- settings: male, Sprague-Dawley, rat, plasma, po, 100 mg/kg, acteoside in rat plasma, oral acteoside 100 mg/kg, Control group, n = 6; read-out: MRT(0-∞)

[
  {
    "molecule": "C[C@@H]1O[C@@H](O[C@@H]2[C@@H](O)[C@H](OCCc3ccc(O)c(O)c3)O[C@H](CO)[C@H]2OC(=O)/C=C/c2ccc(O)c(O)c2)[C@H](O)[C@H](O)[C@H]1O [Acteoside, acteoside]",
    "MRT inf [h]": 4.34
  }
]
